Reference for the values: PubChem BioAssay AID2060882

- System: 898857-211-R-J1-PDC complex spheroids, growth % test/control
- assayText: Anticancer human tumor 898857-211-R-J1-PDC patient-derived melanoma cell line growth inhibition [RAS]
- particulars: second compound 0.00949 µM; first compound 1 µM; active compounds read low
- Description: RAS pathway inhibitors in Combinations in Complex Spheroids A high-throughput screen of multi-cell type tumor spheroids was designed to identify active combinations of RAS pathway inhibitors and targeted small molecules. Complex spheroids include a stromal component modeled by human endothelial cells (HUVEC) and fibroblasts modeled by human mesenchymal stem cells (MSCs). […] Compounds. […] If the clinical Cmax for an agent had not been determined, the highest concentration tested was 10 microM. […]
Entries annotated with measured viability, T/C
The figure you give is taken to be in %; do not add the unit.

[[record]]
molecule = "Nc1ccn(C2OC(CO)C(O)C2(F)F)c(=O)n1 (centres undefined) + CCn1c(-c2cccnc2C(C)OC)c2c3cc(ccc31)N1CCOC(CC(NC(=O)C(C(C)C)N(C)C(=O)C3(F)CCN(C(=O)C#CC(C)(C)N(C)C)CC3)C(=O)N3CCCC(N3)C(=O)OCC(C)(C)C2)C1"
targetortestsystem = "898857-211-R-J1-PDC complex spheroids, growth % test/control"
numericvalue = 4.53

[[record]]
molecule = "O=C(c1ccc(F)c(F)c1Nc1ccc(I)cc1F)N1CC(O)([C@@H]2CCCCN2)C1 + CCn1c(-c2cccnc2C(C)OC)c2c3cc(ccc31)N1CCOC(CC(NC(=O)C(C(C)C)N(C)C(=O)C3(F)CCN(C(=O)C#CC(C)(C)N(C)C)CC3)C(=O)N3CCCC(N3)C(=O)OCC(C)(C)C2)C1"
targetortestsystem = "898857-211-R-J1-PDC complex spheroids, growth % test/control"
numericvalue = 12.7

[[record]]
molecule = "CCC(CC)c1cc(NC2CCC(N)C2)n2nccc2n1 (centres undefined) + CCn1c(-c2cc(N3CCN(C)CC3)cnc2C(C)OC)c2c3cc(ccc31)-c1csc(n1)CC(NC(=O)C1CC1C)C(=O)N1CCCC(N1)C(=O)OCC(C)(C)C2"
targetortestsystem = "898857-211-R-J1-PDC complex spheroids, growth % test/control"
numericvalue = 23.6


Let us examine a further case.
Tell us which viability, T/C value is on record for C[C@@H](NC(=O)c1ncnc(N)c1Cl)c1ncc(C(=O)Nc2cc(C(F)(F)F)c(Cl)cn2)s1 + CCn1c(-c2cc(N3CCN(C)CC3)cnc2C(C)OC)c2c3cc(ccc31)-c1csc(n1)CC(NC(=O)C1CC1C)C(=O)N1CCCC(N1)C(=O)OCC(C)(C)C2
53.7

* * *

Examples of compounds with documented viability, T/C follow.
- Test system: 898857-211-R-J1-PDC complex spheroids, growth % test/control
- assayText: Anticancer human tumor 898857-211-R-J1-PDC cell line growth inhibition [RAS];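 also: spheroids exposed to compound for seven days before readout; 100% = DMSO vehicle control wells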
- particulars: second compound 0.0949 µM; first compound 0.0316 µM; active compounds read low
Write the answer as a number in %, unit excluded.

Worked cases, answers included:
[[record]]
compound = "CC(Nc1ccc2c(c1)OCCn1cc(N3C(=O)OCC3C(F)F)nc1-2)C(N)=O (centres undefined) + CCn1c(-c2cc(N3CCN(C)CC3)cnc2C(C)OC)c2c3cc(ccc31)-c1csc(n1)CC(NC(=O)C1CC1C)C(=O)N1CCCC(N1)C(=O)OCC(C)(C)C2"
readoutname = "viability, T/C"
numericvalue = 106

[[record]]
compound = "CC(Nc1ccc2c(c1)OCCn1cc(N3C(=O)OCC3C(F)F)nc1-2)C(N)=O (centres undefined) + CCn1c(-c2cccnc2C(C)OC)c2c3cc(ccc31)N1CCOC(CC(NC(=O)C(C(C)C)N(C)C(=O)C3(F)CCN(C(=O)C#CC(C)(C)N(C)C)CC3)C(=O)N3CCCC(N3)C(=O)OCC(C)(C)C2)C1"
readoutname = "viability, T/C"
numericvalue = 103

[[record]]
compound = "Cc1nc(N2CCC3(CC2)COC(C)C3N)c(CO)nc1Sc1ccnc(N)c1Cl (centres undefined) + CCn1c(-c2cccnc2C(C)OC)c2c3cc(ccc31)N1CCOC(CC(NC(=O)C(C(C)C)N(C)C(=O)C3(F)CCN(C(=O)C#CC(C)(C)N(C)C)CC3)C(=O)N3CCCC(N3)C(=O)OCC(C)(C)C2)C1"
readoutname = "viability, T/C"
numericvalue = 90.6


Give recorded viability, T/C. CCN1CCN(Cc2ccc(Nc3ncc(F)c(-c4cc(F)c5nc(C)n(C(C)C)c5c4)n3)nc2)CC1 + CCn1c(-c2cc(N3CCN(C)CC3)cnc2C(C)OC)c2c3cc(ccc31)-c1csc(n1)CC(NC(=O)C1CC1C)C(=O)N1CCCC(N1)C(=O)OCC(C)(C)C2
87.2
